B1: 2M8U (parent)
chain: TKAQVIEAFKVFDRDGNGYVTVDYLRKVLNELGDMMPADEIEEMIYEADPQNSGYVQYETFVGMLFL

Variants of: B1
PROTOCOL TEXT: folding stability dG (cDNA display proteolysis); higher = more stable
SETUP CONDITIONS: PBS, room temperature
If the reported folding stability dG equals or exceeds 3 kcal/mol, assign satisfied. If not, assign not satisfied.

[
  {
    "VARIANT NOTATION": "R14Q",
    "CATEGORY LABEL": "satisfied"
  },
  {
    "VARIANT NOTATION": "V28P",
    "CATEGORY LABEL": "not satisfied"
  },
  {
    "VARIANT NOTATION": "Y58C",
    "CATEGORY LABEL": "not satisfied"
  },
  {
    "VARIANT NOTATION": "V5D",
    "CATEGORY LABEL": "not satisfied"
  },
  {
    "VARIANT NOTATION": "Y24N",
    "CATEGORY LABEL": "satisfied"
  },
  {
    "VARIANT NOTATION": "L32P",
    "CATEGORY LABEL": "not satisfied"
  },
  {
    "VARIANT NOTATION": "S53K",
    "CATEGORY LABEL": "satisfied"
  },
  {
    "VARIANT NOTATION": "Y58M",
    "CATEGORY LABEL": "not satisfied"
  },
  {
    "VARIANT NOTATION": "F9E",
    "CATEGORY LABEL": "not satisfied"
  },
  {
    "VARIANT NOTATION": "D15G",
    "CATEGORY LABEL": "not satisfied"
  }
]

Data request: Given `G16R` , state whether its folding stability dG is at least 3 kcal/mol.
Data returned: not satisfied

Data request: Is the recorded value of folding stability dG equal to or greater than 3 kcal/mol for this variant? `D49I`
Data returned: not satisfied

Data request: Has `V11K` a recorded folding stability dG greater than or equal to 3 kcal/mol?
Data returned: satisfied

Data request: Kindly determine if folding stability dG recorded for `L65V` is above or exactly 3 kcal/mol.
Data returned: not satisfied

Data request: Is reported folding stability dG greater than or equal to 3 kcal/mol here: `L29T`
Data returned: not satisfied

Data request: Is reported folding stability dG greater than or equal to 3 kcal/mol here: `E47C`
Data returned: satisfied

Data request: Form field: folding stability dG at least 3 kcal/mol? Entry: `V5K`
Data returned: not satisfied

Data request: Answer whether folding stability dG of `G63K` is greater than or equal to 3 kcal/mol.
Data returned: satisfied

Data request: Assess whether reported folding stability dG for `E59W` sits at 3 kcal/mol or higher.
Data returned: satisfied

Data request: Threshold query (folding stability dG >= 3 kcal/mol) on `G63P`
Data returned: not satisfied

Data request: In plain terms: is recorded folding stability dG at least 3 kcal/mol for `Q4E` ?
Data returned: satisfied

Data request: Reported folding stability dG reaches at least 3 kcal/mol for `R26F` ?
Data returned: satisfied

Data request: Answer whether folding stability dG of `L29R` is greater than or equal to 3 kcal/mol.
Data returned: not satisfied
